# assay.summary: Ratio of drug uptake in Wistar rat brain to plasma at 3 mg/kg, sc after 2 hrs
# Assay type: ADME, organism-based
# conditions: read-out: BPR
measured.property: Kp at 2 h

[[record]]
compound = "c1ccc2sc(NC3=NCC4(CN5CCC4CC5)N3)nc2c1 (stereo unspecified)"
measured_property = "Kp at 2 h"
readout_number = 4


* * *

# assay.summary: Ratio of drug uptake in Wistar rat brain to plasma at 10 mg/kg, sc after 2 hrs
# Type: ADME, organism-based
# conditions: read-out: BPR
measured.property: Kp at 2 h

[[record]]
molecule = "c1ccc2sc(NC3=NCC4(CN5CCC4CC5)N3)nc2c1 (stereo unspecified)"
measured_property = "Kp at 2 h"
readout_number = 4.1

